Tested on: Plasmodium falciparum
Experiment: GSK_TCMDC: Inhibition of Plasmodium falciparum Dd2 in whole red blood cells, using parasite LDH activity as an index of growth. Test compounds present at 2uM
Assay type: functional
quantityName: Inhibition (%)

>  <compound>
COc1ccc(Nc2nccc(-c3c(-c4cccc(NC(=O)c5c(F)cccc5F)c4)nn4ccccc34)n2)cc1Cl

>  <targetOfAssay>
Plasmodium falciparum

>  <reportedResult>
71

$$$$
>  <compound>
Cc1cccc2nc(-c3ccc(-c4ccc(NC(=O)C(C)CN(C)C)cc4)cc3)[nH]c12 (centres undefined)

>  <targetOfAssay>
Plasmodium falciparum

>  <reportedResult>
99

$$$$
>  <compound>
CN(C)C(=S)N/N=C1/C(=O)Nc2ccc(OC(F)(F)F)cc21

>  <targetOfAssay>
Plasmodium falciparum

>  <reportedResult>
52

$$$$
>  <compound>
Cl.O=C(/C=C/c1ccc(Cl)c(Cl)c1)N1CCC(CN2CCC(c3c[nH]c4ncccc34)CC2)CC1

>  <targetOfAssay>
Plasmodium falciparum

>  <reportedResult>
20

$$$$
>  <compound>
O=C(Nc1ccc(Oc2ccccc2)cc1)N(CCN1CCCC1)Cc1ccc(-c2ccc(CN3CCNCC3)cc2)cc1.O=C(O)C(F)(F)F

>  <targetOfAssay>
Plasmodium falciparum

>  <reportedResult>
90

$$$$
>  <compound>
O=C(NC1CC1)c1ccc(N2CCC(Cc3ccccc3)CC2)nc1.O=C(O)C(F)(F)F

>  <targetOfAssay>
Plasmodium falciparum

>  <reportedResult>
92

$$$$
>  <compound>
Cc1c(F)cc(C(=O)NC2CC2)cc1-c1ccc2c(c1)c(C)nn2S(=O)(=O)c1cccs1

>  <targetOfAssay>
Plasmodium falciparum

>  <reportedResult>
92

$$$$
>  <compound>
COc1cc(F)c2ncc(Cl)c(C(O)CN3CCC(NC(=O)c4ccc5c(c4)NC(=O)CS5)CC3)c2c1.Cl (centres undefined)

>  <targetOfAssay>
Plasmodium falciparum

>  <reportedResult>
68

$$$$
>  <compound>
CCN(CC)CCN(Cc1ccc(-c2ccc(C(F)(F)F)cc2)cc1)C(=O)Cn1cc(Cc2cnn(C)c2)c(=O)n2nc(-c3ccccc3)cc12.O=C(O)C(O)C(O)C(=O)O

>  <targetOfAssay>
Plasmodium falciparum

>  <reportedResult>
74

$$$$

====

Tested on: Plasmodium falciparum
Assay: GSK_TCMDC: Inhibition of Plasmodium falciparum 3D7 in whole red blood cells, using parasite LDH activity as an index of growth. Test compounds present at 2uM
Assay type: functional

>  <compound>
COc1ccc(C(=O)CCC(=O)N(Cc2ccc(-c3ccc(CNCCc4ccc(S(C)(=O)=O)cc4)cn3)cc2)Cc2ccc3c(c2)OCO3)cc1F.O=C(O)C(F)(F)F

>  <targetOfAssay>
Plasmodium falciparum

>  <Inhibition, %>
95

$$$$
>  <compound>
Cc1cc(C(=O)Nc2ccc3c(c2)CCN3C2CCN(Cc3ccc(O)cc3)C2)no1 (stereo not drawn)

>  <targetOfAssay>
Plasmodium falciparum

>  <Inhibition, %>
95

$$$$
>  <compound>
CCOc1ccc(C2CCN(CCCCNC(=O)c3ccc(NC(=O)c4ccc(Cl)cc4)cc3)CC2)c(Cl)c1

>  <targetOfAssay>
Plasmodium falciparum

>  <Inhibition, %>
100

$$$$
>  <compound>
Cc1n[nH]c2ccc(-c3cc(OC[C@@H](N)Cc4ccccc4)cnc3-c3cc4ccccc4s3)cc12.O=C(O)C(F)(F)F

>  <targetOfAssay>
Plasmodium falciparum

>  <Inhibition, %>
99

$$$$
>  <compound>
O=C(NCCCCN1CCC(C(c2ccccc2)c2ccccc2)CC1)c1ccc(NC(=O)c2ccc(Cl)cc2)cc1

>  <targetOfAssay>
Plasmodium falciparum

>  <Inhibition, %>
100

$$$$
>  <compound>
CCOc1cc(CC)ccc1C1CCN(CCN2CCC(NC(=O)c3ccc(-c4ccc(C#N)cc4)cc3)CC2)CC1

>  <targetOfAssay>
Plasmodium falciparum

>  <Inhibition, %>
100

$$$$
>  <compound>
Nc1nc(-c2ccc3c(Nc4ccc(F)c(Cl)c4)ccnc3c2)cs1

>  <targetOfAssay>
Plasmodium falciparum

>  <Inhibition, %>
100

$$$$
>  <compound>
CCNC(=O)c1cc(S(=O)(=O)N2CCN(c3ccccn3)CC2)cs1

>  <targetOfAssay>
Plasmodium falciparum

>  <Inhibition, %>
97

$$$$
>  <compound>
CN(CCC(O)c1ccc(Cl)c(Cl)c1)CC1CC1C(=O)c1ccccc1 (stereo not drawn)

>  <targetOfAssay>
Plasmodium falciparum

>  <Inhibition, %>
98

$$$$
>  <compound>
COc1ccc(Cc2c(Cl)nc3nc(N)nc(N)c3c2C)c(OC)c1OC

>  <targetOfAssay>
Plasmodium falciparum

>  <Inhibition, %>
98

$$$$
>  <compound>
CCCCCCc1cc(Oc2c(I)cc(C[C@H](N)C(=O)O)cc2I)ccc1O

>  <targetOfAssay>
Plasmodium falciparum

>  <Inhibition, %>
97

$$$$
>  <compound>
COC(=O)[C@@H](NC(=O)[C@@H](Nc1ccc(C#N)c2ccccc12)C(C)(C)C)c1ccc(O)cc1

>  <targetOfAssay>
Plasmodium falciparum

>  <Inhibition, %>
100

$$$$
>  <compound>
CCOC(=O)c1[nH]c2ccc(F)cc2c1NC(=O)CN1CCN(c2cccc(C(F)(F)F)c2)CC1

>  <targetOfAssay>
Plasmodium falciparum

>  <Inhibition, %>
96

$$$$
>  <compound>
CC(CN(C)C)C(=O)Nc1cccc(-c2cccc(-c3nc4cc(F)ccc4[nH]3)c2)c1 (stereo not drawn)

>  <targetOfAssay>
Plasmodium falciparum

>  <Inhibition, %>
100

$$$$
>  <compound>
Cc1ccc(Cn2cnc3cc(C(=O)Nc4ccc(-c5ccc(CN(C)C)cc5)cc4)ccc3c2=O)o1

>  <targetOfAssay>
Plasmodium falciparum

>  <Inhibition, %>
82

$$$$
>  <compound>
CCCCCCCC1=NN2C(=N)C(=Cc3cc(Br)c(OCc4ccc(F)cc4)c(OCC)c3)C(=O)N=C2S1

>  <targetOfAssay>
Plasmodium falciparum

>  <Inhibition, %>
95

$$$$
>  <compound>
CCCc1ccc(S(=O)(=O)NC2CCN(C(=O)Nc3ccc(I)cc3)CC2)cc1

>  <targetOfAssay>
Plasmodium falciparum

>  <Inhibition, %>
97

$$$$
>  <compound>
CN1CCN(c2ccc(-c3cccc(NC(=O)c4ccc5ccccc5c4)c3)nn2)CC1

>  <targetOfAssay>
Plasmodium falciparum

>  <Inhibition, %>
94

$$$$
>  <compound>
O=C(Nc1ccc(Cn2ncc(N3CCCNCC3)c(Cl)c2=O)cc1)Nc1cc(Cl)cc(Cl)c1.O=C(O)C(F)(F)F

>  <targetOfAssay>
Plasmodium falciparum

>  <Inhibition, %>
91

$$$$
>  <compound>
COc1ccc(-c2ccc(NC(=O)c3cccc(Cl)c3)c(F)c2)cc1CN1CCCN(C)CC1.O=C(O)C(F)(F)F

>  <targetOfAssay>
Plasmodium falciparum

>  <Inhibition, %>
100

$$$$
>  <compound>
O=C(NCc1cccc(F)c1)Nc1cccc(-c2ccc(-c3nc4cc(F)ccc4[nH]3)cc2)c1

>  <targetOfAssay>
Plasmodium falciparum

>  <Inhibition, %>
84

$$$$
>  <compound>
Cc1ccc(NC(=O)c2ccc(CN3CCCN(CCC(C)C)CC3)cc2)cc1C.O=C(O)C(F)(F)F

>  <targetOfAssay>
Plasmodium falciparum

>  <Inhibition, %>
92

$$$$
>  <compound>
O=C(/C=C/c1ccc(Cl)c(Cl)c1)NCCCCN1CCC(c2c[nH]c3ccccc23)CC1

>  <targetOfAssay>
Plasmodium falciparum

>  <Inhibition, %>
91

$$$$

====

System: HepG2
Experiment: GSK_TCMDC: Percent inhibition of human HepG2 cell line. Test compounds present at 10uM.
Type: functional
Hi! Just check whether Inhibition is below 20%. Below gives 1.0, equal or above gives 0.0.

>  <compound>
CCOc1ccc(-c2nonc2NC(=O)c2cccs2)cc1OCC

>  <discreteLabel>
1.0

$$$$
>  <compound>
CN1CCN(CCCN(Cc2ccc(-c3ccc(CNCc4ccc5c(c4)OCO5)cc3)cc2)C(=O)CCC2CCCC2)CC1.O=C(O)C(F)(F)F

>  <discreteLabel>
0.0

$$$$
>  <compound>
COc1ccc(N2CCN(CCCCNC(=O)c3ccc(NC(=O)c4cccc(Cl)c4)cc3)CC2)c(OC)c1

>  <discreteLabel>
1.0

$$$$
>  <compound>
CN(C)CCNCc1cccc(-c2ccc3c(Nc4ccc(Oc5ccccn5)cc4)ccnc3c2)c1

>  <discreteLabel>
0.0

$$$$
>  <compound>
CCC[C@@H](/C=N/N(C)C(=O)OC(C)(C)C)NC(=O)[C@H](CC(C)C)NC(=O)c1cc2cccc(OC)c2o1

>  <discreteLabel>
1.0

$$$$
>  <compound>
CN(C)C(=O)c1ccc(CN(Cc2ccc(OC(C)(C)C)cc2)Cc2ccc3c(c2)OCCO3)cc1

>  <discreteLabel>
1.0

$$$$
>  <compound>
COc1ccc(-c2nonc2NC(=O)c2cccc(Cl)c2)cc1OC

>  <discreteLabel>
0.0

$$$$
>  <compound>
Cc1ccc2sc(N3CCN(C(=O)c4ccc([N+](=O)[O-])o4)CC3)nc2c1C

>  <discreteLabel>
1.0

$$$$
>  <compound>
Fc1ccc2[nH]c(-c3cccc(-c4cccc(CNCc5ccccc5)c4)c3)nc2c1.O=C(O)C(F)(F)F

>  <discreteLabel>
0.0

$$$$
>  <compound>
FC(F)(F)c1ccc2[nH]c(-c3ccc(-c4ccc(CNCCN5CCNCC5)cc4)cc3)nc2c1.O=C(O)C(F)(F)F

>  <discreteLabel>
1.0

$$$$
>  <compound>
Cc1nc2nc(N)nc(N)c2c(C)c1Cc1ccc(Cl)cc1.Cl

>  <discreteLabel>
0.0

$$$$
>  <compound>
CCCOc1ccc(NC(=O)c2cccs2)cc1Cl

>  <discreteLabel>
1.0

$$$$
>  <compound>
COc1cc(C)ccc1N1CCN(CCCCNC(=O)c2ccc(NC(=O)c3ccc(Cl)cc3)cc2)CC1

>  <discreteLabel>
0.0

$$$$
>  <compound>
COc1ccc(Nc2nccc(N3CCC(NC(=O)Nc4cccc(OC)c4)C3)n2)cc1 (stereo not drawn)

>  <discreteLabel>
0.0

$$$$
>  <compound>
CC(C)CN1C(=O)c2ccccc2C(C(=O)Nc2cccc(C#N)c2)C1c1cccs1 (stereo not drawn)

>  <discreteLabel>
1.0

$$$$
>  <compound>
CCCCCCn1c(Sc2ccc(C#N)c([N+](=O)[O-])c2)nnc1-c1cccc(Cl)c1

>  <discreteLabel>
1.0

$$$$
>  <compound>
O=C(Nc1cccc(C(F)(F)F)c1)c1cc([N+](=O)[O-])cc2cn[nH]c12

>  <discreteLabel>
0.0

$$$$
>  <compound>
COc1ccccc1-c1csc(C(=O)NC2CCCCN(Cc3ccc(C(C)(C)C)cc3)C2)c1.O=C(O)C(F)(F)F (stereo not drawn)

>  <discreteLabel>
1.0

$$$$
>  <compound>
O=C(CCCCCNC(=O)c1ccc(O)c(-c2ccc(Cl)c(Cl)c2)c1)NCCN1CCCC1

>  <discreteLabel>
1.0

$$$$
>  <compound>
Cc1ccc2nc(C)cc(N/N=C/c3ccccc3[N+](=O)[O-])c2c1

>  <discreteLabel>
1.0

$$$$
>  <compound>
CCCNCc1ccc(-c2ccc(CNC3Cc4ccccc4C3)cc2)nc1.O=C(O)C(F)(F)F

>  <discreteLabel>
0.0

$$$$
>  <compound>
CCCc1cc(OC)c(CC2c3cc(O)c(Cl)cc3CCN2C)cc1OC.Cl (stereo not drawn)

>  <discreteLabel>
1.0

$$$$
>  <compound>
CCOC(=O)c1ccc(NC(=O)Nc2cccc(-c3cccc(-c4nc5cccc(C)c5[nH]4)c3)c2)cc1

>  <discreteLabel>
0.0

$$$$
>  <compound>
COc1ccccc1N1CCN(C(C(=O)NCc2ccc3c(c2)OCO3)c2ccc(C)cc2)CC1 (stereo not drawn)

>  <discreteLabel>
1.0

$$$$
>  <compound>
Cc1cc(O)c(CN(C)Cc2ccc(N(C)C)cc2)cc1C(C)C

>  <discreteLabel>
1.0

$$$$
>  <compound>
CO/C(=C\C=C\c1cc2cc(Cl)c(Cl)cc2[nH]1)C(=O)NC1CCN(CCNc2ccccc2)CC1

>  <discreteLabel>
0.0

$$$$
>  <compound>
CCOC(=O)c1ccc(NC(=O)N[C@@H](Cc2ccccc2)C(=O)NC2CCN(Cc3ccc(OCCCN(C)C)cc3)C2)cc1 (stereo partly drawn)

>  <discreteLabel>
1.0

$$$$
